I'd appreciate it if you could supply pKd values for the items below.
- TEST SYSTEM: T1, cynomolgus/rhesus macaque CD47 protein, His Tag (ACRObiosystems, Cat. No. CD7-C52H1) (cynomolgus monkey (cynomolgus/rhesus …, UniProt A0A2K5X523 19-141))
- T1 construct: bought reagent; also called Cynomolgus monkey CD47 protein
- T1 sequence (A0A2K5X523 entry or part of it limits assumed): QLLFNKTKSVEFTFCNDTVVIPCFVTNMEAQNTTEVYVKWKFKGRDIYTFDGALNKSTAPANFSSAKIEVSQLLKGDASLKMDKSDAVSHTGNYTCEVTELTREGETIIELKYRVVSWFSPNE
- TEST: Biacore SPR, 25 C, antibody captured on CM5 chip
One number for each entry, as −log10 of the molar value.

State recorded pKd for all listed binders.
1. hz3F10-4.1 (antibody, human IgG4 S228P, kappa, V domains shown, humanized 3F10, full-length heavy and light chains) VH: QVQLVQSGAEVKKPGSSVKVSCKASGYTFSRYWIEWVRQAPGQGLEWMGEFIPGSDTTNYAQKFQGRVTITADISTSTAYMELSSLRSEDTAVYYCARGGLRRMDYWGQGTLVTVSS VL: DIQMTQSPSSLSASVGDRVTITCRASSSVSSTYLHWYQQKPGKAPKLLIYTTSTLASGVPSRFSGSGSGTSYTLTISSLQPEDFATYYCQQFSESTWTFGQGTKLEIKR
2. hz3F10-2.2 (antibody, human IgG4 S228P, kappa, V domains shown, humanized 3F10, full-length heavy and light chains) VH: QVQLVQSGAEVKKPGSSVKVSCKASGYTFSRYWIEWVRQAPGQGLEWMGEFIPGSDTTNYAQKFQGRVTITAEISTNTAYMELSSLRSEDTAVYYCARGGLRRMDYWGQGTLVTVSS VL: DIQMTQSPSSLSASVGDRVTITCRASSSVSSTYLHWYQQKPGKAPKLLIYTTSTLASGVPSRFSGSGSGTDFTLTISSLQPEDFATYYCQQFSESTWTFGQGTKLEIKR
3. hz3F10-6.2 (antibody, human IgG4 S228P, kappa, V domains shown, humanized 3F10, full-length heavy and light chains) VH: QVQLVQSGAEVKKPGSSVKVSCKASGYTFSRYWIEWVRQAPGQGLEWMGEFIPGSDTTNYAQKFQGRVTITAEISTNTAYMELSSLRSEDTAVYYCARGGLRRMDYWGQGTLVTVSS VL: DIQMTQSPSSLSASVGDRVTITCRASSSVSSTYLHWYQQKPGKAPKLWIYTTSTLASGVPSRFSGSGSGTSYTLTISSLQPEDFATYYCQQFSESTWTFGQGTKLEIKR
4. hz3F10-3.2 (antibody, human IgG4 S228P, kappa, V domains shown, humanized 3F10, full-length heavy and light chains) VH: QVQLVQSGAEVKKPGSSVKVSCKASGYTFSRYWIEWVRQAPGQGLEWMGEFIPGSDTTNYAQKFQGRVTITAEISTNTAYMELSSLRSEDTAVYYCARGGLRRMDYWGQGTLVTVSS VL: DIQMTQSPSSLSASVGDRVTITCRASSSVSSTYLHWYQQKPGKAPKLLIYTTSTLASGVPSRFSGSGSGTSYTLTISSLQPEDFATYYCQQFSDSTWTFGQGTKLEIKR
5. hz3F10-5.1 (antibody, human IgG4 S228P, kappa, V domains shown, humanized 3F10, full-length heavy and light chains) VH: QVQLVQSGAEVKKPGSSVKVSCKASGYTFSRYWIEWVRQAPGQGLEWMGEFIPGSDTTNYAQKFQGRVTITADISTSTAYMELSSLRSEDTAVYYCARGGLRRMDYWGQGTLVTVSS VL: DIQMTQSPSSLSASVGDRVTITCRASSSVSSTYLHWYQQKPGKAPKLWIYTTSTLASGVPSRFSGSGSGTSYTLTISSLQPEDFATYYCQQFSDSTWTFGQGTKLEIKR
6. hz14A9-2.4 (antibody, human IgG4 S228P, kappa, V domains shown, humanized 14A9, full-length heavy and light chains) VH: QVQLVQSGAEVKKPGASVKVSCKVSGFNIEDDYIEWVRQAPGQGLEWMGRIDPANDKTKYAQKFQGRVTMTGDTSTNTVYMELSSLRSEDTAVYYCTRPGLRRYYSMDYWGQGTLVTVSS VL: DIQMTQSPSSLSASVGDRVTITCKASENVVSYVSWYQQKPGKAPKLLIYGASNRYTGVPSRFIGSGSSTDFTLTISSLQPEDFATYYCGQSYSYPLTFGQGTKLEIKR
7. hz14A9-2.3 (antibody, human IgG4 S228P, kappa, V domains shown, humanized 14A9, full-length heavy and light chains) VH: QVQLVQSGAEVKKPGASVKVSCKVSGFNIEDDYIEWVRQAPGQGLEWMGRIDPANDKTKYAQKFQGRVTMTGDTSTNTVYMELSSLRSEDTAVYYCARPGLRRYYSMDYWGQGTLVTVSS VL: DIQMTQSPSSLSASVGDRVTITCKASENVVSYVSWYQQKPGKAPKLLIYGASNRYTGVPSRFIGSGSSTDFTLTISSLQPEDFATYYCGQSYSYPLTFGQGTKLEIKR
8. hz3F10-5.2 (antibody, human IgG4 S228P, kappa, V domains shown, humanized 3F10, full-length heavy and light chains) VH: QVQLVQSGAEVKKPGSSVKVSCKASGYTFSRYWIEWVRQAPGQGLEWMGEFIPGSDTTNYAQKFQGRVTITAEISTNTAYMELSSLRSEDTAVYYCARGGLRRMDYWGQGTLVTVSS VL: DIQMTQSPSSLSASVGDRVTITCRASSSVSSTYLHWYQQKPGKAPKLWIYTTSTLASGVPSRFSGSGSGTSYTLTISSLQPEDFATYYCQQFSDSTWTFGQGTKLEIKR

1. 8.79
2. 8.94
3. 8.94
4. 8.83
5. 8.89
6. 8.70
7. 8.51
8. 8.85

For each of the binders below, note its pKd.
1. hz3F10-1.2 (antibody, human IgG4 S228P, kappa, V domains shown, humanized 3F10, full-length heavy and light chains) VH: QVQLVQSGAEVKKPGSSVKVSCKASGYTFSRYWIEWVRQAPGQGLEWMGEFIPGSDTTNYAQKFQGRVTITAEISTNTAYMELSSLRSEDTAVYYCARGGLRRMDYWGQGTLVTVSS VL: DIQMTQSPSSLSASVGDRVTITCRASSSVSSTYLHWYQQKPGKAPKLLIYTTSTLASGVPSRFSGSGSGTDFTLTISSLQPEDFATYYCQQFSDSTWTFGQGTKLEIKR
2. hz3F10-6.1 (antibody, human IgG4 S228P, kappa, V domains shown, humanized 3F10, full-length heavy and light chains) VH: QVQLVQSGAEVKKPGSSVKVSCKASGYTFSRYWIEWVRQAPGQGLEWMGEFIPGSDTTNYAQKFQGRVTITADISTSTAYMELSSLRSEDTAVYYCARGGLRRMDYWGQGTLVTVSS VL: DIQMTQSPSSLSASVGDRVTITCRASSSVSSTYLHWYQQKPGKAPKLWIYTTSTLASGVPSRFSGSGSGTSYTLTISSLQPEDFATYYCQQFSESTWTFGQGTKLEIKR

1. 8.88
2. 8.61
